The entries below are paired with their reported protein stability index.
tested on: Saccharomyces cerevisiae; experiment: protein stability index of tFT-peptide fusion (C-terminal peptide) (PSI (0-1 scale)); higher = more stable (slower turnover); details: genetic background: wild type; temperature: 30 C
Quick one: just the number, no unit, thanks!

Example sequences with recorded protein stability index:
Qu. Identify the measured protein stability index of CSLINSCAFFCL [YDR413C C-terminal 12 aa] for Saccharomyces cerevisiae.
Ans. 0.647

Qu. Please provide the recorded protein stability index for DERLEQLKRLGI [HOM3 C-terminal 12 aa] , tested on Saccharomyces cerevisiae.
Ans. 0.677

Qu. Can you look up protein stability index on Saccharomyces cerevisiae for KKKRGFLGLFGR [SRP68 C-terminal 12 aa] ?
Ans. 0.677

Qu. Requested read-out protein stability index, target or system Saccharomyces cerevisiae, entry TAFLNKVYKRSK [ERG20 C-terminal 12 aa]
Ans. 0.693

Qu. Provide the documented protein stability index with Saccharomyces cerevisiae as the system for LPLKLTRKVHDR [RIF2 C-terminal 12 aa]
Ans. 0.713

Shifting focus to the sequence that follows.
Qu. Lab note: need protein stability index with Saccharomyces cerevisiae for entry PGPISFLPVIPI [YLR402W C-terminal 12 aa] , please look it up.
Ans. 0.744
